Origin of measurements: paper PMC4147775

Below is a list of entries, each paired with its recorded Thermal shift (ΔTm obs) BRDT(1) value.
Target: BRDT(1) (Homo sapiens, UniProt Q58F21)
Construct: the second as compared with the first bromodomain of these BRDs
Experiment: Protein stability shift assay (thermal shift), BRDT(1)
Type: binding
Settings: 10 μM ligand

# COMPOUND, Thermal shift (ΔTm obs) BRDT(1)
data = [
    ("Cc1nnc2n1-c1sccc1C(c1ccc3c(c1)OCO3)=NC2", 0.3),
    ("Cc1nnc2n1-c1sccc1C(c1ccccc1)=NC2", 0.4),
    ("COc1cc(OC)c2c(=O)[nH]c(-c3cc(C)c(OCCO)c(C)c3)nc2c1 [RVX-208, reference compound]", 0.6),
    ("Cc1nnc2n1-c1sccc1C(c1ccccc1)=NC2(C)C", "−0.9"),
]

* * *

Below is a list of entries, each paired with its recorded Thermal shift (ΔTm obs) BRD4(2) value.
Molecular target: BRD4(2) (Homo sapiens, UniProt O60885)
Construct: the second as compared with the first bromodomain of these BRDs
Assay: Protein stability shift assay (thermal shift), BRD4(2)
Assay type: binding
Details: 10 μM ligand

# COMPOUND, Thermal shift (ΔTm obs) BRD4(2)
rows = [
    ("Cc1nnc2n1-c1sccc1C(c1ccccc1)=NC2 [MDCO-3760]", 2.8),
    ("Cc1nnc2n1-c1sccc1C(c1ccccc1)=NC2(C)C [MDCO-3770]", 2.5),
    ("COc1cc(OC)c2c(=O)[nH]c(-c3cc(C)c(OCCO)c(C)c3)nc2c1 [RVX-208, reference compound]", 3.4),
    ("Cc1nnc2n1-c1sccc1C(c1ccc3c(c1)OCO3)=NC2 [MDCO-3783]", 1.9),
]
